- Tested on: Staphylococcus sp.
- RUN_DESCRIPTION: In vitro antibacterial evaluation: minimum inhibitory concentration (MIC), broth dilution method
- Type: cell-based
- REPORTED_CONDITIONS: broth dilution, 18 hours at 35° C.
OBSERVABLE: MIC Coagulase Negative Staphylococcus (GC 6257) (µg/mL)
Give bare numbers, in µg/mL.

Answered cases to consult:
- CC(c1ccccc1)C1NC(=O)CNC(=O)C(CO)NC(=O)C(C(O)C2CNC(=N)N2C2OC(CO)C(O)C(O)C2O)NC(=O)C(C(O)C2CNC(=N)N2)NC(=O)C(Cc2ccc3oc(C=C(c4ccccc4)c4ccccc4)nc3c2)NC1=O (stereo not drawn): 4
- CC(c1ccccc1)C1NC(=O)CNC(=O)C(CO)NC(=O)C(C(O)C2CNC(=N)N2C2OC(CO)C(O)C(O)C2O)NC(=O)C(C(O)C2CNC(=N)N2)NC(=O)C(Cc2ccc3oc(-c4ccccc4OC4OC(CO)C(O)C(O)C4O)nc3c2)NC1=O (stereo not drawn): 64

Please find the next compound below.
IN: Given the entry CC(c1ccccc1)C1NC(=O)CNC(=O)C(CO)NC(=O)C(C(O)C2CNC(=N)N2C2OC(CO)C(O)C(O)C2O)NC(=O)C(C(O)C2CNC(=N)N2)NC(=O)C(Cc2ccc3oc(-c4ccoc4)nc3c2)NC1=O (stereo not drawn) , report its measured MIC Coagulase Negative Staphylococcus (GC 6257).
OUT: 16
